Recorded values, source the supplement of paper PMC12645437.

- targetSystem: T1, CRBN, Q96SW2;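 further: pooled lentiviral library of zinc finger degron-EGFP fusions in mCherry-positive Jurkat cells, FACS-sorted after compound exposure, with degron abundance counted by next-generation sequencing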
- T1 chain: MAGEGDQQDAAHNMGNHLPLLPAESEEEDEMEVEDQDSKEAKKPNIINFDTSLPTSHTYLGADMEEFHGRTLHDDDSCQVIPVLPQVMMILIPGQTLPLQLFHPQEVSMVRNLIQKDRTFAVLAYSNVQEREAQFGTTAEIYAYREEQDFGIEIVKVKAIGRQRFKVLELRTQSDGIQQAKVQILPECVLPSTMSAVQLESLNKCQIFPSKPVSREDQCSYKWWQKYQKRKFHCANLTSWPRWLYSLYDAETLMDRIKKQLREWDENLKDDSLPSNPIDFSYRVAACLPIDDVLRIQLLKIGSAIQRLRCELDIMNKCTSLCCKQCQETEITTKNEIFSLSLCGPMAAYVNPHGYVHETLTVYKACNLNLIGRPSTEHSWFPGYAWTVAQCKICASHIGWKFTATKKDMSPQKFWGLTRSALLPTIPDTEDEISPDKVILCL
- measurementDescription: log2 fold change of degron read counts, EGFP-low vs EGFP+ sorted cells (limma voom), compound-induced degradation; higher = more compound-induced degradation of the degron-EGFP fusion; degrons are variants of IKZF1/3 zinc finger 2; compound dose not given here
- runConditions: Jurkat; 18 h; compound: compound 22 (5-morpholino-thalidomide)
In all, about 8,300 sequences were measured (“log2 fold change of degron read counts, EGFP-low vs EGFP+ sorted cells (limma voom), compound-induced degradation”: median about -1.1, highest 2% from about 3.2 on). What follows is part of a selection rich in the highest values, with near analogues and random picks from the rest.
Labels assigned by log2 fold change of degron read counts range: bucket 1 (below -2), bucket 2 (-2 to below 0.8), bucket 3 (0.8 or more)

Band of LYCEICGFRCTQKGNLLRHIKL [46L_47Y_49E_50I_52G_53F_54R_55C_67L_, Q9UKT9] ?
bucket 3

Which bin, given its log2 fold change of degron read counts, does LVCEICGFRCTQKGNLLRHIKL [46L_47V_49E_50I_52G_53F_54R_55C_67L_, Q9UKT9] occupy?
bucket 3

In plain terms, what class is FECPICGHSFTQKGNLLRHIKL [46F_47E_49P_50I_52G_53H_54S_55F_67L_, Q9UKT9] ?
bucket 1

Sort FVCPICGRIFTQKGNLLRHIKL [46F_47V_49P_50I_52G_53R_54I_55F_67L_, Q9UKT9] into one of the categories.
bucket 2

In plain terms, what class is FECNVCGAHFTQKGNLLRHIKL [46F_47E_49N_50V_52G_53A_54H_55F_67L_, Q9UKT9] ?
bucket 1

Category of FICPICGRGFTQKGNLLRHIKL [46F_47I_49P_50I_52G_53R_54G_55F_67L_, Q9UKT9] , please.
bucket 2

Field: class (log2 fold change of degron read counts) — entry: FFCDICGAGFTQKGNLLRHIKL [46F_47F_49D_50I_52G_53A_54G_55F_67L_, Q9UKT9]
bucket 3

Form field 'band' for LWCEICGFRCTQKGNLLRHIKL [46L_47W_49E_50I_52G_53F_54R_55C_67L_, Q9UKT9]
bucket 3

The entry to classify is FWCNQCGRSFTQKGNLLRHIKL [46F_47W_49N_50Q_52G_53R_54S_55F_67L_, Q9UKT9] ; which class holds it?
bucket 1

Would you mind sorting FLCPVCGAHFTQKGNLLRHIKL [46F_47L_49P_50V_52G_53A_54H_55F_67L_, Q9UKT9] into the appropriate category?
bucket 2

For this sequence, which bin applies? FNCDVCGAFFTQKGNLLRHIKL [46F_47N_49D_50V_52G_53A_54F_55F_67L_, Q9UKT9]
bucket 1

// return the class label for FRCNQCGHEFTQKGNLLRHIKL [46F_47R_49N_50Q_52G_53H_54E_55F_67L_, Q9UKT9]
bucket 1

Class (by measured log2 fold change of degron read counts) for FVCNVCGAHFTQKGNLLRHIKL [46F_47V_49N_50V_52G_53A_54H_55F_67L_, Q9UKT9]
bucket 2

Lab note: sort FLCDVCGAYFTQKGNLLRHIKL [46F_47L_49D_50V_52G_53A_54Y_55F_67L_, Q9UKT9] into the matching log2 fold change of degron read counts band.
bucket 1
